The measured values listed here are drawn from patent US7795261B2.

biological target: NK3 (Homo sapiens, UniProt P29371); assay: Signal transduction (ST), intracellular Ca++ (FLIPR), NK3; format: cell-based; settings: read-out: pIC50 NK3 (converted)
Sequence (P29371 whole entry): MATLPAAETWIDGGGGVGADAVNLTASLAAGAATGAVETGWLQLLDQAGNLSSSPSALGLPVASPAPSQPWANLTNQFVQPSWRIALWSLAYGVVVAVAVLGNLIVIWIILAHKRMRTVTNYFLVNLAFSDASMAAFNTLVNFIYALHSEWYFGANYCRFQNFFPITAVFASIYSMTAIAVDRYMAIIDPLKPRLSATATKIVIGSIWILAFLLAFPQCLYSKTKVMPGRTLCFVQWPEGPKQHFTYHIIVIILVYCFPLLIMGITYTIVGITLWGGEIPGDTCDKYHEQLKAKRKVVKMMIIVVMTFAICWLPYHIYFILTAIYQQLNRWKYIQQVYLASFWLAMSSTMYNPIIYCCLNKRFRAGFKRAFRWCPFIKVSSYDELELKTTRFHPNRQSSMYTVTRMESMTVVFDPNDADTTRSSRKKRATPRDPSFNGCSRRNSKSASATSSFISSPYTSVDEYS
ATTRIBUTE MEASURED: IC50 (nM)
Give bare numbers, in nM.

Previously resolved entries follow.
MOLECULE | ATTRIBUTE MEASURED | UNIT INFO | REPORTED MEASUREMENT
O=C(C1CCC1)N1CCC(N2CCN([C@H]3CCN(C(=O)c4cc(C(F)(F)F)cc(C(F)(F)F)c4)[C@H](Cc4ccccc4)C3)CC2)C1 (some centres unmarked) | IC50 | nM | 1580
O=C(c1cc(COCc2ccccc2)cs1)N1CCC(N2CCN([C@H]3CCN(C(=O)c4cc(C(F)(F)F)cc(C(F)(F)F)c4)[C@H](Cc4ccccc4)C3)CC2)C1 (some centres unmarked) | IC50 | nM | 3160
N#CN=C(N1CCCC1)N1CCC(N2CCN([C@H]3CCN(C(=O)c4cc(C(F)(F)F)cc(C(F)(F)F)c4)[C@H](Cc4ccccc4)C3)CC2)C1 (some centres unmarked) | IC50 | nM | 1000
O=C(c1cc(C(F)(F)F)cc(C(F)(F)F)c1)N1CC[C@H](N2CCN(C3CCN(S(=O)(=O)c4ccccc4)C3)CC2)C[C@H]1Cc1ccccc1 (some centres unmarked) | IC50 | nM | 398
O=C(c1ccccc1Cl)N1CC[C@@H](N2CCN([C@H]3CCN(C(=O)c4cc(C(F)(F)F)cc(C(F)(F)F)c4)[C@H](Cc4ccc(Cl)c(Cl)c4)C3)CC2)C1 | IC50 | nM | 316

Below is a list of molecules. For each, state its recorded IC50.
1. O=C(c1sccc1CCO)N1CCC(N2CCN([C@H]3CCN(C(=O)c4cc(C(F)(F)F)cc(C(F)(F)F)c4)[C@H](Cc4ccccc4)C3)CC2)C1 (some centres unmarked)
2. O=C(c1cc(C(F)(F)F)cc(C(F)(F)F)c1)N1CCC(N2CCN(C3CCN(C(=O)C(F)(F)F)C3)CC2)CC1Cc1ccccc1 (centres unmarked)
3. CC(C)(C)OCCC(=O)N1CCC(N2CCN(C3CCN(C(=O)c4cc(C(F)(F)F)cc(C(F)(F)F)c4)C(Cc4ccccc4)C3)CC2)C1 (centres unmarked)
4. O=C(C1CCOC1)N1CCC(N2CCN(C3CCN(C(=O)c4cc(C(F)(F)F)cc(C(F)(F)F)c4)C(Cc4ccc(Cl)c(Cl)c4)C3)CC2)C1 (single isomer, unassigned) [Compound 249]

RESULT:
1: 631; 2: 1000; 3: 3160; 4: 5010

Please report IC50 for every entry that follows.
1. O=C(C(NCc1ccccc1)c1ccccc1)N1CCC(N2CCN([C@H]3CCN(C(=O)c4cc(C(F)(F)F)cc(C(F)(F)F)c4)[C@H](Cc4ccccc4)C3)CC2)C1 (some centres unmarked)
2. O=C(c1cnccn1)N1CCC(N2CCN([C@H]3CCN(C(=O)c4cc(C(F)(F)F)cc(C(F)(F)F)c4)[C@H](Cc4ccccc4)C3)CC2)C1 (some centres unmarked)

RESULT:
[631, 1000]

----------
target: NK3 (Homo sapiens, UniProt P29371); assay: Signal transduction (ST), intracellular Ca++ (FLIPR), NK3; format: cell-based; conditions: read-out: pIC50 NK3 (converted)
ATTRIBUTE MEASURED: IC50
# include the unit after the value

Some solved entries appear below for comparison.
COMPOUND | IC50
O=C1CC[C@@H](C(=O)N2CCC(N3CCN([C@H]4CCN(C(=O)c5cc(C(F)(F)F)cc(C(F)(F)F)c5)[C@H](Cc5ccccc5)C4)CC3)C2)O1 (stereo partly drawn) [Compound 386] | 5010 nM
COc1ccc(S(=O)(=O)N2CCC(N3CCN([C@H]4CCN(C(=O)c5cc(C(F)(F)F)cc(C(F)(F)F)c5)[C@H](Cc5ccccc5)C4)CC3)C2)cc1OC (stereo partly drawn) [Compound 378] | 2000 nM

QUERY: Report IC50, nothing else, for this compound: CC1(C(=O)N2CCC(N3CCN([C@H]4CCN(C(=O)c5cc(C(F)(F)F)cc(C(F)(F)F)c5)[C@H](Cc5ccccc5)C4)CC3)C2)CC1 (stereo partly drawn) [Compound 73]
RESULT: 1580 nM
